Exercise: state measured IC50, TF-1 cell proliferation for each of the binders provided.
# MEASURED TARGET: T1, human GM-CSFRα, full length on cells (human, UniProt P15509 23-400)
# T1 sequence: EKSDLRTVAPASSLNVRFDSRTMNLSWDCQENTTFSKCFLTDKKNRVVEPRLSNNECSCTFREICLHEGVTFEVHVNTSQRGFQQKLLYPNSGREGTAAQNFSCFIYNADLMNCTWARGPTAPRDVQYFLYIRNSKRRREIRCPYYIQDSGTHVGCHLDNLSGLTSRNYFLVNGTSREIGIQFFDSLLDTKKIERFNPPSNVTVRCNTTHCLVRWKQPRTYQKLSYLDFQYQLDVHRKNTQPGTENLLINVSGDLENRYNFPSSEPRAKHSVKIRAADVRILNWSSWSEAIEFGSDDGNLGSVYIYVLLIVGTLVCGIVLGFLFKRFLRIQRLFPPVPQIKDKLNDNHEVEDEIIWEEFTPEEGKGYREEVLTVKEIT
# PROCEDURE TEXT: cell-based or functional assay
Please respond with the number in µg/mL and leave the unit unwritten.

Query string: Form field: reported IC50, TF-1 cell proliferation of E35-scFv LQ27P (scFv, V domains shown) VH: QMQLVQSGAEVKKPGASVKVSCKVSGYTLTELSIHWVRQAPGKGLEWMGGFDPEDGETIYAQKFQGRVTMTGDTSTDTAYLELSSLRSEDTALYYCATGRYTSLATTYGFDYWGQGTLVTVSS VL: EIVMTQSPATLSLSPGERATLSCRASPSVSSYLAWYQQKPGQAPRLLIYGASSRATGIPDRFSGSGSGTDFTLTISRLEPEDFAVYYCQQYDNWPYTFGQGTKLEIK
Result string: 0.097

Query string: Form field: reported IC50, TF-1 cell proliferation of E35-scFv HE31W (scFv, V domains shown) VH: QMQLVQSGAEVKKPGASVKVSCKVSGYTLTWLSIHWVRQAPGKGLEWMGGFDPEDGETIYAQKFQGRVTMTGDTSTDTAYLELSSLRSEDTALYYCATGRYTSLATTYGFDYWGQGTLVTVSS VL: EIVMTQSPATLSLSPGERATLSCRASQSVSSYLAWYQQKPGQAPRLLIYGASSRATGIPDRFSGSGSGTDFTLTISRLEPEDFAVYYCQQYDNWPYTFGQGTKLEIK
Result string: 0.26

Query string: Form field: reported IC50, TF-1 cell proliferation of E35-scFv LG50R (scFv, V domains shown) VH: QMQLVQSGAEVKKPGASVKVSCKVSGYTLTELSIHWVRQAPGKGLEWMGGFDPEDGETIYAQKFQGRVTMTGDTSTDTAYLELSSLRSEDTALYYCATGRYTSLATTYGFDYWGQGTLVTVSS VL: EIVMTQSPATLSLSPGERATLSCRASQSVSSYLAWYQQKPGQAPRLLIYRASSRATGIPDRFSGSGSGTDFTLTISRLEPEDFAVYYCQQYDNWPYTFGQGTKLEIK
Result string: 2.79
